Where do the numbers come from? From patent US20120316071A1.

# assaySystem: T1, rHuman EGF R/Fc Chimera, CF (human, UniProt P00533 25-645)
# T1 construct: Bought from R&D Systems; also called epidermal growth factor receptor; not shown: Fc of the bought chimera
# assayMethodText: ECL Multispot (MSD) assay; antigen spotted on plate, Fab in solution;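 also: fab bound 1 h at 20 °C, detected by TAG-labelled antibody electrochemiluminescence, signal relative to each well's blank, ratio of 4 or more marks a hit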
property: ECL signal
Just the number, please.

Provide only the value of recorded ECL signal for Fab VH1-46_IGHD6-6*01_IGHJ1*01 S102A/S103P/S104F/H111F (APFF) & L6_IGKJ1*01 S28G (Fab, V domains shown, Fab made in E. coli; the variable domains were cloned into Plasmid A (CH1, His and Flag tags) and Plasmid C (kappa CL); also called APFF / S28G) VH: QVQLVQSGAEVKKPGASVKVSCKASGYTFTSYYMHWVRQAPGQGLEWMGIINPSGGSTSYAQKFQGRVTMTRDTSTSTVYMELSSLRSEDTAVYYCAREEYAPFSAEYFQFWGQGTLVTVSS VL: EIVLTQSPATLSLSPGERATLSCRASQGVSSYLAWYQQKPGQAPRLLIYDASNRATGIPARFSGSGSGTDFTLTISSLEPEDFAVYYCQQRSNWPPWTFGQGTKVEIKR
360
